Assignment: determine reported inhibition for the given compounds.
testedTarget: SGK3 (human) (UniProt Q96BR1)
Sequence (Q96BR1 whole entry, looked up): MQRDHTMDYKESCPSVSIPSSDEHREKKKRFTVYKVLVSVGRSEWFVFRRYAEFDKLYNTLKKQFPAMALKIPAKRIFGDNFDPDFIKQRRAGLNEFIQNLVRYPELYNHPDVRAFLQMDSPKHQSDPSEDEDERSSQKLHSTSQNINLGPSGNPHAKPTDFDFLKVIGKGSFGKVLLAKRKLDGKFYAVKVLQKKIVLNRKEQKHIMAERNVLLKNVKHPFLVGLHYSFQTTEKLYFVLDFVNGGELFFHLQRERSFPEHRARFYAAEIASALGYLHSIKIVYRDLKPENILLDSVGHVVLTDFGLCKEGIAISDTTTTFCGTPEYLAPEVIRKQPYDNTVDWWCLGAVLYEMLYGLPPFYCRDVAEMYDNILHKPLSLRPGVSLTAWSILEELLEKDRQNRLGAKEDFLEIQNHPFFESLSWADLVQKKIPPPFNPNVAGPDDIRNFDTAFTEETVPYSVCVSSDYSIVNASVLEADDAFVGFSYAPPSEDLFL
assayRemarks: Caliper, Mobility shift assay off-chip
runConditions: compound 0.1 µM
Value expressed in %; do not type the unit.

Consider the compound shown here: O=c1c2cc(CS(=O)(=O)NCc3ccccn3)ccc2ccc2ncc(C3CCNCC3)cc12 What is its recorded inhibition? -7.3

Consider the compound shown here: Cn1cc(-c2cnc3ccc4ccc(CS(=O)(=O)NCC5CCCCN5)cc4c(=O)c3c2)cn1 (configuration not stated) What is its recorded inhibition? 0.3

Consider the compound shown here: CN(c1ccc2ccc3ncc(-c4cnn(C)c4)cc3c(=O)c2c1)S(=O)(=O)NCc1ccccn1 What is its recorded inhibition? -5.3

Consider the compound shown here: O=C(CCc1ccc2ccc3ncc(C4CCNCC4)cc3c(=O)c2c1)NCc1ccccn1 What is its recorded inhibition? 9

Consider the compound shown here: Cn1cc(-c2cnc3ccc4ccc(CS(=O)(=O)CCc5ccccn5)cc4c(=O)c3c2)cn1 What is its recorded inhibition? -10.4

Consider the compound shown here: Cn1cc(-c2cnc3ccc4ccc(CS(=O)(=O)NC5CCCCC5)cc4c(=O)c3c2)cn1 What is its recorded inhibition? 17.7

Consider the compound shown here: Cn1cc(-c2cnc3ccc4ccc(CS(N)(=O)=O)cc4c(=O)c3c2)cn1 What is its recorded inhibition? -1.4

----------
testedTarget: DCLK2 (human)
assayRemarks: Caliper, Mobility shift assay off-chip
runConditions: compound 0.1 µM
Assignment: determine reported inhibition for the given compounds.
Value expressed in %; do not type the unit.

Consider the compound shown here: Cn1cc(-c2cnc3ccc4ccc(CS(=O)(=O)NCC5CCCCN5)cc4c(=O)c3c2)cn1 (configuration not stated) What is its recorded inhibition? -6

Consider the compound shown here: Cn1cc(-c2cnc3ccc4ccc(CS(N)(=O)=O)cc4c(=O)c3c2)cn1 What is its recorded inhibition? 1.7

Consider the compound shown here: O=c1c2cc(CS(=O)(=O)NCc3ccccn3)ccc2ccc2ncc(C3CCNCC3)cc12 What is its recorded inhibition? -0.7

Consider the compound shown here: Cn1cc(-c2cnc3ccc4ccc(CS(=O)(=O)CCc5ccccn5)cc4c(=O)c3c2)cn1 What is its recorded inhibition? -6.4

Consider the compound shown here: CN(c1ccc2ccc3ncc(-c4cnn(C)c4)cc3c(=O)c2c1)S(=O)(=O)NCc1ccccn1 What is its recorded inhibition? 8.6

Consider the compound shown here: O=C(CCc1ccc2ccc3ncc(C4CCNCC4)cc3c(=O)c2c1)NCc1ccccn1 What is its recorded inhibition? 2

Consider the compound shown here: Cn1cc(-c2cnc3ccc4ccc(CS(=O)(=O)NC5CCCCC5)cc4c(=O)c3c2)cn1 What is its recorded inhibition? 7.8

----------
testedTarget: MAPK13 (human) (UniProt O15264)
Sequence (O15264 whole entry, looked up): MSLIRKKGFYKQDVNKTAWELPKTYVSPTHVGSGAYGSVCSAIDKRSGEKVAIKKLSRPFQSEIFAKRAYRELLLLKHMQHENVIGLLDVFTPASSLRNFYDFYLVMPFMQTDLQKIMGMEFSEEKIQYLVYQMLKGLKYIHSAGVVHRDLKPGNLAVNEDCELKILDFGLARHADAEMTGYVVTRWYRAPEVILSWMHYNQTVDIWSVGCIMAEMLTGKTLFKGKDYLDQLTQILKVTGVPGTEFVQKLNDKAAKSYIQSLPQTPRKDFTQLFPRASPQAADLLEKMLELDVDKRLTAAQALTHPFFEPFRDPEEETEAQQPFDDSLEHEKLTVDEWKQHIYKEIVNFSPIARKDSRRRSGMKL
assayRemarks: Caliper, Mobility shift assay off-chip
runConditions: compound 0.1 µM
readoutName: inhibition (%)
Value expressed in %; do not type the unit.

Consider the compound shown here: O=c1c2cc(CS(=O)(=O)NCc3ccccn3)ccc2ccc2ncc(C3CCNCC3)cc12 What is its recorded inhibition? -5.7

Consider the compound shown here: O=C(CCc1ccc2ccc3ncc(C4CCNCC4)cc3c(=O)c2c1)NCc1ccccn1 What is its recorded inhibition? -1.8

Consider the compound shown here: Cn1cc(-c2cnc3ccc4ccc(CS(N)(=O)=O)cc4c(=O)c3c2)cn1 What is its recorded inhibition? -3.2

Consider the compound shown here: Cn1cc(-c2cnc3ccc4ccc(CS(=O)(=O)CCc5ccccn5)cc4c(=O)c3c2)cn1 What is its recorded inhibition? -7.9

Consider the compound shown here: CN(c1ccc2ccc3ncc(-c4cnn(C)c4)cc3c(=O)c2c1)S(=O)(=O)NCc1ccccn1 What is its recorded inhibition? -0.3

Consider the compound shown here: Cn1cc(-c2cnc3ccc4ccc(CS(=O)(=O)NC5CCCCC5)cc4c(=O)c3c2)cn1 What is its recorded inhibition? -3

Consider the compound shown here: Cn1cc(-c2cnc3ccc4ccc(CS(=O)(=O)NCC5CCCCN5)cc4c(=O)c3c2)cn1 (configuration not stated) What is its recorded inhibition? -4.9
